# assay target: T1, human CD47 (analyte in the Biacore assay) (human, UniProt Q08722 19-139, limits assumed)
# T1 construct: also called human CD47 protein
# test details: SPR (Biacore T200), antibody captured by anti-mouse Fc, human CD47 as analyte
Measured kon values are reported for all entries that follow.
Give the value, in units of M⁻¹ s⁻¹, as a plain number.

Below: 2 binders and their reported kon.
059-1.20.1 (antibody, mouse IgG1, V domains shown, also called 059-1.20.1 purified antibody) VH: EVQLQQSGPELVKPGASVNMSCKASGYTFTNYFLHWVKQKPGQGLEWIGYINPYNDGTNYNENFKGKATLTSDKSSSTAYMELSSLTSEDSAVYYCAKGGWFSMDYWGQGTSVTVSS VL: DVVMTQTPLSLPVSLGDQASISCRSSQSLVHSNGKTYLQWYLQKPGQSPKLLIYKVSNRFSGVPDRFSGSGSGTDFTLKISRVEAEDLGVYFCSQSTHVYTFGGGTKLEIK = 217000
059-1.11.1 (antibody, mouse IgM, V domains shown, Mouse hybridoma antibody; the subclass paragraph gives the light chain type as kappa; also called 059-1.11.1 purified antibody) VH: QVQLQQSGAELVRPGASVTLSCKASGYTFTDYEMHWVKQTPVHGLEWIGAIDPETGGTAYNQKFKGKATLTADKSSSTAYMELRSLTSEDSAVYYCTRGTPYAMDYWGQGTSVTVSS VL: DVVMTQTPLSLPVSLGDQASISCRSSQSLVHSNGNTYLHWYLQKPGQSPKLLIYKVSNRFSGVPERFSGSGSGTDFTLKISRVEAEDLGVYFCSQSTHVPWTFGGGTKLEIK = 260000

Then this binder:
Give the measured kon for 059-1.30.1 (antibody, mouse IgG1, V domains shown, also called 059-1.30.1 purified antibody) VH: EVQLQQSGPELVKPGASVRMSCKASGYTFTNYVMHWVKQKPGQGLEWIGYINPYNDGTKYSEKFKGKATLTSDKSSITAYMELSSLTSEDSAVYYCAKGGLFTFDYWGQGTTLTVSS VL: DVVMTQTPLSLPVSLGDQASISCRSSQSLVHSKGNTYLHWYLQKPGQSPKLLIYRVSNRFSGVPDRFSGSGSGTDFTLKISRVEAEDLGVYFCSQSTHVPFTFGSGTKLEIK
424000

FYI, the data here is from patent US20220089727A1.
